Assay: Cytotoxicity against imatinib mesylate sensitive mouse 32D cells expressing wild type BCR/ABL p210 assessed as reduction in cell viability after 48 hrs by cell counting method
Assay type: functional, cell-based
# IC50 listing for each entry below
metric_name: IC50 (µM)

>>> recorded_result("C(=C\\n1ncc2c(NC3CCCCC3)ncnc21)/c1ccccc1")
8.5
>>> recorded_result("C(=C\\n1ncc2c(N3CCCCCC3)ncnc21)/c1ccccc1")
1.2
